ASSAY INFO: in vitro
Assay type: cell-based, human
CONDITION NOTES: human; 12.5 µM, 24 h incubation, MTT, mean ± SD; read-out: Cells viability of SH-SY5Y cell line (% of control)
READOUT NAME: viability at 24 h, 12.5 µM
Just the number plus its unit, please.

A selection of reference data follows.
1. CCOP(=O)(NCCCCCCCCNc1c2c(nc3ccccc13)CCCC2)OCC = 76.7%
2. CCOP(=O)(NCCCCCCNc1c2c(nc3ccccc13)CCCC2)OCC = 74.3%
3. O=P(NCCCCCCCCCCCCNc1c2c(nc3ccccc13)CCCC2)(Oc1ccccc1)Oc1ccccc1 = 40.4%

Record request: viability at 24 h, 12.5 µM value, item O=P(OCCNCCNc1c2c(nc3ccccc13)CCCC2)(Oc1ccccc1)Oc1ccccc1
52.3%

###

TARGET ENTITY: Acetylcholinesterase (eeAChE, E.C. 3.1.1.7) (Electrophorus electricus, UniProt O42275)
Construct: purchased Sigma Aldrich
Sequence (O42275 24-633): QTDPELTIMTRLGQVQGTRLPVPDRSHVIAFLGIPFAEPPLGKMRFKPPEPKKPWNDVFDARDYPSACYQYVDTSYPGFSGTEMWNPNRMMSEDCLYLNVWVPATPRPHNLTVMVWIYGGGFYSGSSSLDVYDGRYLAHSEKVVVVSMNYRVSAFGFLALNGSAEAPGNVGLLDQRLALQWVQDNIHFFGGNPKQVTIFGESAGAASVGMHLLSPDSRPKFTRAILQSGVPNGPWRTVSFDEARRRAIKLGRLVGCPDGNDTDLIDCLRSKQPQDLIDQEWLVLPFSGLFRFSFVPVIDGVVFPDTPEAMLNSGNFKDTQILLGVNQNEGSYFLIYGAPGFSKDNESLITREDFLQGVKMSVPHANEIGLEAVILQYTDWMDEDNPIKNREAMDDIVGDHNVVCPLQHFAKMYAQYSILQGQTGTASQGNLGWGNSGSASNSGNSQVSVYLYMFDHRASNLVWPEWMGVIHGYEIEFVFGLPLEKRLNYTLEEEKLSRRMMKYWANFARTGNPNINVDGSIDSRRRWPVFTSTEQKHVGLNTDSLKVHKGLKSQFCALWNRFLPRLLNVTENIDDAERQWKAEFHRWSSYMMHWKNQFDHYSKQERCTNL
ASSAY INFO: biochemical
Type: biochemical, electric eel
CONDITION NOTES: ratio of IC50 values
READOUT NAME: Selectivity IC50(eeAChE)/ IC50(BChE)

Solved entries:
1. O=P(OCCNCCNc1c2c(nc3ccccc13)CCCC2)(Oc1ccccc1)Oc1ccccc1 = 12.22
2. CCOP(=O)(NCCCCCCCCCCCCNc1c2c(nc3ccccc13)CCCC2)OCC = 0.51
3. CCOP(=O)(OCC)OCCCNc1c2c(nc3ccccc13)CCCC2 = 14.36

Test system Acetylcholinesterase (eeAChE, E.C. 3.1.1.7) (Electrophorus electricus, UniProt O42275); read-out Selectivity IC50(eeAChE)/ IC50(BChE); what value for O=P(NCCCCCCCCCCCCNc1c2c(nc3ccccc13)CCCC2)(Oc1ccccc1)Oc1ccccc1 ?
5.06

// query: CCOP(=O)(NCCCCCCNc1c2c(nc3ccccc13)CCCC2)OCC
4.82

###

viability at 24 h, 50 µM: recorded values
ASSAY INFO: in vitro
Format: cell-based, human
CONDITION NOTES: human; 50 µM, 24 h incubation, MTT, mean ± SD; read-out: Cells viability of SH-SY5Y cell line (% of control)
Could you give me the number in %? Just the number is fine.

Check out these entries, answers already filled in.
1. O=P(OCCCNc1c2c(nc3ccccc13)CCCC2)(Oc1ccccc1)Oc1ccccc1 = 71.2
2. CCCCOP(=O)(NCCCCCCCCNc1c2c(nc3ccccc13)CCCC2)OCCCC = 55.7
3. CCCCOP(=O)(OCCCC)OCCNCCNc1c2c(nc3ccccc13)CCCC2 = 79.7
4. O=P(NCCCCCCCCCCCCNc1c2c(nc3ccccc13)CCCC2)(Oc1ccccc1)Oc1ccccc1 = 38.4

Could you share which viability at 24 h, 50 µM value was measured for CCOP(=O)(NCCCCCCNc1c2c(nc3ccccc13)CCCC2)OCC ?
71.7

Also need CCCCOP(=O)(NCCCCCCCCCCCCNc1c2c(nc3ccccc13)CCCC2)OCCCC , thanks.
52.1

Would you kindly repeat that for CCCCOP(=O)(OCCCC)OCCCNc1c2c(nc3ccccc13)CCCC2 ?
67.7

Then O=P(OCCNCCNc1c2c(nc3ccccc13)CCCC2)(Oc1ccccc1)Oc1ccccc1 ?
42.7

Another: CCOP(=O)(NCCCCCCCCNc1c2c(nc3ccccc13)CCCC2)OCC
51.6

###

ASSAY INFO: in vitro
Type: cell-based, human
CONDITION NOTES: human; 100 µM, 24 h incubation, MTT, mean ± SD; read-out: Cells viability of SH-SY5Y cell line (% of control)
READOUT NAME: viability at 24 h, 100 µM (%)
Give the quantity in %, number only.

1) CCCCOP(=O)(OCCCC)OCCCNc1c2c(nc3ccccc13)CCCC2 = 63.2
2) O=P(OCCCNc1c2c(nc3ccccc13)CCCC2)(Oc1ccccc1)Oc1ccccc1 = 59
3) CCOP(=O)(NCCCCCCCCNc1c2c(nc3ccccc13)CCCC2)OCC = 52.2
4) CCCCOP(=O)(OCCCC)OCCNCCNc1c2c(nc3ccccc13)CCCC2 = 68.6

Which viability at 24 h, 100 µM reading was recorded for the compound O=P(NCCCCCCCCCCCCNc1c2c(nc3ccccc13)CCCC2)(Oc1ccccc1)Oc1ccccc1 ?
38

Request: O=P(OCCNCCNc1c2c(nc3ccccc13)CCCC2)(Oc1ccccc1)Oc1ccccc1
30.7

Follow-up item: CCCCOP(=O)(NCCCCCCCCNc1c2c(nc3ccccc13)CCCC2)OCCCC
54.6

CCOP(=O)(NCCCCCCNc1c2c(nc3ccccc13)CCCC2)OCC ?
67.5

Now consider CCCCOP(=O)(NCCCCCCCCCCCCNc1c2c(nc3ccccc13)CCCC2)OCCCC .
53.5

###

# key: entry, value: viability at 12.5 µM
ASSAY INFO: in vitro
Format: cell-based, human
CONDITION NOTES: human; 12.5 µM, 24 h incubation, MTT, mean ± SD; read-out: Cells viability of SH-SY5Y cell line (% of control)
Kindly provide the numeric value in % only, without the unit symbol.

1) O=P(NCCCCCCNc1c2c(nc3ccccc13)CCCC2)(Oc1ccccc1)Oc1ccccc1 [Compound 7] = 47.4
2) O=P(NCCCCCCCCNc1c2c(nc3ccccc13)CCCC2)(Oc1ccccc1)Oc1ccccc1 [Compound 10] = 80.1
3) CCOP(=O)(OCC)OCCCNc1c2c(nc3ccccc13)CCCC2 [Compound 16] = 88.1
4) CCOP(=O)(NCCCCCCCCCCCCNc1c2c(nc3ccccc13)CCCC2)OCC [Compound 11] = 35.4

Please look at the following compound next.
Return reported viability at 12.5 µM; argument: CCOP(=O)(OCC)OCCNCCNc1c2c(nc3ccccc13)CCCC2 [Compound 19]
85.5

###

Each record here notes measured log10(IC50).
TARGET ENTITY: butyrylcholinesterase (BChE, E.C. 3.1.1.8) (Equus caballus)
Construct: purchased Sigma Aldrich
Sequence (P81908 whole entry): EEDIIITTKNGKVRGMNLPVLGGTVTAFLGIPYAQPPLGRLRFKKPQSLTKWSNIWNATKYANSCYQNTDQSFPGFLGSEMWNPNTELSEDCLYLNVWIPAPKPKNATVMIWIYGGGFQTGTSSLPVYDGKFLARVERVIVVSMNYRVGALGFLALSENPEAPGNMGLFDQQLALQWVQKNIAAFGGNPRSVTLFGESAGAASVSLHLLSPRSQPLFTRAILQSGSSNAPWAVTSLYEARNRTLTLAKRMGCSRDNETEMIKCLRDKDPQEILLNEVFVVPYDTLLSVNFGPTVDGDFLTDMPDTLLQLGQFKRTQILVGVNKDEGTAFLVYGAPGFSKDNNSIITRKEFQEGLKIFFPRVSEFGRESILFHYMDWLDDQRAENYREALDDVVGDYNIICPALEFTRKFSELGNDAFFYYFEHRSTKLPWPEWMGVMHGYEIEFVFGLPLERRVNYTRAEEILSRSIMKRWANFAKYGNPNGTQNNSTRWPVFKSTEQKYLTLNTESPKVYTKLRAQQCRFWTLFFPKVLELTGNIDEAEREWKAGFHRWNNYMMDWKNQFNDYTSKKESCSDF
ASSAY INFO: biochemical
Design: species or system equine serum
CONDITION NOTES: BChE from equine serum; value in brackets under the IC50; read-out: pIC50 ± S.E.M. BChE (converted)
Remember, log10 of IC50, in nM.

Please report the recorded log10(IC50) for CCOP(=O)(OCC)OCCNCCNc1c2c(nc3ccccc13)CCCC2 .
2.05

Then what about the compound CCOP(=O)(OCC)OCCCNc1c2c(nc3ccccc13)CCCC2 ?
1.23

Also O=P(NCCCCCCCCNc1c2c(nc3ccccc13)CCCC2)(Oc1ccccc1)Oc1ccccc1 ?
2.27

Do the same for O=P(NCCCCCCNc1c2c(nc3ccccc13)CCCC2)(Oc1ccccc1)Oc1ccccc1 please
1.61

Queued: CCOP(=O)(NCCCCCCCCCCCCNc1c2c(nc3ccccc13)CCCC2)OCC
1.82

###

ASSAY INFO: in vitro
Type: cell-based, human
CONDITION NOTES: human, Cells viability of SH-SY5Y cell line (% of control)
READOUT NAME: viability at 50 µM (%)
Express the result in % but write the number alone.

Sample Nc1c2c(nc3ccccc13)CCCC2 [Tacrine, 9-amino-1,2,3,4-tetrahydroacridine, reference compound] — what was its viability at 50 µM?
97.2

###

ASSAY INFO: in vitro
Assay type: cell-based, human
CONDITION NOTES: human; MTT, 24 h incubation; read-out: Cytotoxicity on HepG2 cells IC50
READOUT NAME: IC50

1) CCOP(=O)(OCC)OCCNCCNc1c2c(nc3ccccc13)CCCC2 = > 600 µM
2) CCOP(=O)(OCC)OCCCNc1c2c(nc3ccccc13)CCCC2 = 114 µM
3) CCOP(=O)(NCCCCCCCCCCCCNc1c2c(nc3ccccc13)CCCC2)OCC = 0.05 µM
4) O=P(NCCCCCCCCNc1c2c(nc3ccccc13)CCCC2)(Oc1ccccc1)Oc1ccccc1 = 7.15 µM

Shift focus to the following entry.
Record request: IC50 value, item O=P(NCCCCCCNc1c2c(nc3ccccc13)CCCC2)(Oc1ccccc1)Oc1ccccc1
14.6 µM

###

ASSAY INFO: in vitro
Type: cell-based, human
CONDITION NOTES: human, Cells viability of SH-SY5Y cell line (% of control)
READOUT NAME: viability at 12.5 µM (%)
Quick note: give the figure in %, leave out the unit.

Would you mind telling me what viability at 12.5 µM value was observed for Nc1c2c(nc3ccccc13)CCCC2 [Tacrine, 9-amino-1,2,3,4-tetrahydroacridine, reference compound] ?
98.7

###

TARGET ENTITY: Acetylcholinesterase (eeAChE, E.C. 3.1.1.7) (Electrophorus electricus)
Construct: purchased Sigma Aldrich
ASSAY INFO: biochemical
Type: biochemical, electric eel
CONDITION NOTES: eeAChE; value in brackets under the IC50; read-out: pIC50 ± S.E.M. AChE (converted)
READOUT NAME: IC50 (nM)
Expressed in nM, but write only the number.

1. O=P(NCCCCCCCCNc1c2c(nc3ccccc13)CCCC2)(Oc1ccccc1)Oc1ccccc1 = 44.3
2. CCOP(=O)(OCC)OCCCNc1c2c(nc3ccccc13)CCCC2 = 245
3. CCOP(=O)(NCCCCCCCCCCCCNc1c2c(nc3ccccc13)CCCC2)OCC = 33.3
4. CCOP(=O)(OCC)OCCNCCNc1c2c(nc3ccccc13)CCCC2 = 676

Continue with the next molecule.
# value lookup — system Acetylcholinesterase (eeAChE, E.C. 3.1.1.7) (Electrophorus electricus), readout IC50, item O=P(NCCCCCCNc1c2c(nc3ccccc13)CCCC2)(Oc1ccccc1)Oc1ccccc1
125
